Every entry's value here was drawn from patent US4530932A.

Overview of recorded DL0 (maximum dose which did not cause any deaths after 8 days) for various compounds
# Tested on: mice
# ASSAY PROCEDURE: Acute toxicity (DL0, oral)
# Type: in vivo, mouse
# Set-up: unit not given here
Structures can show the parent of a compound that is named as a salt.
MEASURED QUANTITY: DL0 (maximum dose which did not cause any deaths after 8 days)

COMPOUND: OC(COc1ccc(C(F)(F)F)cc1)CN1CCC(c2c[nH]c3ccccc23)CC1 (stereo not shown) [Example 25, hydrochloride]
MEASUREMENT: 100
--
COMPOUND: Oc1ccccc1OCC(O)CN1CCC(c2c[nH]c3ccccc23)CC1 (stereo not shown) [Example 13, hydrochloride]
MEASUREMENT: > 100
--
COMPOUND: C=CCOc1cccc(OCC(O)CN2CCC(c3c[nH]c4ccccc34)CC2)c1 (stereo not shown) [Example 28, hydrochloride]
MEASUREMENT: > 100
--
COMPOUND: OC(COc1ccccc1C1CCCCC1)CN1CCC(c2c[nH]c3ccccc23)CC1 (stereo not shown) [Example 15, hydrochloride]
MEASUREMENT: > 100

====

Recorded ARL in % (relative affinity for β1 adrenergic receptors) values for a group of molecules are listed next.
# SYSTEM NAME: β1 adrenergic receptors (Rattus norvegicus, UniProt P18090)
# Construct: 10 cortexes removed from the brains of male rats weighing an average of 150 g; from tissue; host or cells: cerebral cortex of male rats (membranes)
# Sequence (P18090 whole entry): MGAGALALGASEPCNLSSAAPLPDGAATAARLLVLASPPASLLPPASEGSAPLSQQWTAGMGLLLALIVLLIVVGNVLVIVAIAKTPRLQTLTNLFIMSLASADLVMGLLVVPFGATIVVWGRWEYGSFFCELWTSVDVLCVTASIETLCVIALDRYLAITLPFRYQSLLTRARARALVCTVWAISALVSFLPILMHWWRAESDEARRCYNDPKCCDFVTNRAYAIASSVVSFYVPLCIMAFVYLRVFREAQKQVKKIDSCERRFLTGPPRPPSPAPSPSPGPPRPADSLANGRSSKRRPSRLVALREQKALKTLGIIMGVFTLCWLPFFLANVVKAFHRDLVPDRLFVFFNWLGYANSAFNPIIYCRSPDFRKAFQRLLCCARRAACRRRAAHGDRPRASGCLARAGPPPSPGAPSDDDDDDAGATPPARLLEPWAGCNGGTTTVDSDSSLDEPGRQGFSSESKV
# ASSAY PROCEDURE: Affinity for β1 adrenergic receptors (3H dihydroalprenolol displacement, rat brain cortex)
# Type: binding
# CONDITION DETAILS: relative to propranolol, 37° C., pH 7.7
Counter-ions that a name gives are not always drawn.
MEASURED QUANTITY: ARL in % (relative affinity for β1 adrenergic receptors) (%)

MOLECULE: OC(COc1cccc2ccccc12)CN1CCC(c2c[nH]c3ccccc23)CC1 (centres unmarked)
MEASUREMENT: 0.9
//
MOLECULE: Cc1ccccc1OCC(O)CN1CCC(c2c[nH]c3ccccc23)CC1 (centres unmarked) [Example 9, hydrochloride]
MEASUREMENT: 2.55
//
MOLECULE: CC(=O)c1ccccc1OCC(O)CN1CCC(c2c[nH]c3ccccc23)CC1 (centres unmarked) [Example 17, hydrochloride]
MEASUREMENT: 1.2
//
MOLECULE: C=CCOc1ccccc1OCC(O)CN1CCC(c2c[nH]c3ccccc23)CC1 (centres unmarked) [Example 1, hydrochloride]
MEASUREMENT: 7.3
//
MOLECULE: O=[N+]([O-])c1ccccc1OCC(O)CN1CCC(c2c[nH]c3ccccc23)CC1 (centres unmarked) [Example 11, hydrochloride]
MEASUREMENT: 1.2
//
MOLECULE: C=CCc1ccccc1OCC(O)CN1CCC(c2c[nH]c3ccccc23)CC1 (centres unmarked) [Example 7, hydrochloride]
MEASUREMENT: 3.7
//
MOLECULE: C#CCc1ccccc1OCC(O)CN1CCC(c2c[nH]c3ccccc23)CC1 (centres unmarked) [Example 16, hydrochloride]
MEASUREMENT: 5.8
//
MOLECULE: OC(COc1ccccc1F)CN1CCC(c2c[nH]c3ccccc23)CC1 (centres unmarked) [Example 12, hydrochloride]
MEASUREMENT: 1.2

====

# Tested on: α1 adrenergic receptors
# ASSAY PROCEDURE: Affinity for α1 adrenergic receptors (3H prazosine displacement, rat brain)
# Format: binding
# CONDITION DETAILS: relative to phentolamine (ARL=100×(CB/CX)), 25° C., pH 7.7
Counter-ions that a name gives are not always drawn.
Each entry below carries its recorded % Arl (relative affinity for α1 adrenergic receptors).
MEASURED QUANTITY: % Arl (relative affinity for α1 adrenergic receptors) (%)

MOLECULE: O=[N+]([O-])c1ccc(OCC(O)CN2CCC(c3c[nH]c4ccccc34)CC2)cc1 (stereo not shown) [Example 5, hydrochloride]
MEASUREMENT: 77
//
MOLECULE: C#CCc1ccccc1OCC(O)CN1CCC(c2c[nH]c3ccccc23)CC1 (stereo not shown) [Example 16, hydrochloride]
MEASUREMENT: 321
//
MOLECULE: CC(=O)Nc1ccccc1OCC(O)CN1CCC(c2c[nH]c3ccccc23)CC1 (stereo not shown) [Example 20, hydrochloride]
MEASUREMENT: 311
//
MOLECULE: Cc1ccc(OCC(O)CN2CCC(c3c[nH]c4ccccc34)CC2)cc1 (stereo not shown) [Example 21, hydrochloride]
MEASUREMENT: 93
